System: YELLOW NUTSEDGE
Assay: Test C rice paddy
Assay type: in vivo, Cyperus esculentus
Settings: 0250 G/HA, 21 days
A collection of compounds and their measured plant response

These solved cases illustrate the format of a correct answer.
1. C=C(c1ccc(F)cc1)C(O)(Cn1ncnc1I)c1ccc(F)cc1F (stereo not shown) [Example 1381]: 0
2. C=C(c1ccccc1)C(O)(Cn1cncn1)c1ccc(Cl)cc1Cl (stereo not shown) [Example 50]: 0
3. C=C(c1ccc(Cl)cc1)C(O)(Cn1cncn1)c1ccccc1F (stereo not shown) [Example 669]: 0
4. C=C(c1ccccc1Cl)C(O)(Cn1cncn1)c1ccc(Cl)cc1Cl (stereo not shown) [Example 33]: 0

Q. Fill in the blank: the reported plant response of C=C(c1ccccc1Cl)C(O)(Cn1cncn1)c1ccc(F)cc1F (stereo not shown) [Example 35] is ____.
A. 60

Q. Fill in the blank: the reported plant response of C=C(c1ccc(Cl)cc1Cl)C(O)(Cn1cncn1)c1ccccc1F (stereo not shown) [Example 107] is ____.
A. 50

Q. Fill in the blank: the reported plant response of C=C(c1ccc(F)cc1)C(O)(Cn1ncnc1S)c1ccc(F)cc1F (stereo not shown) [Example 1304] is ____.
A. 0

###

A collection of compounds and their measured plant response
Test system: BONANZA BARLEY
Experiment: Test E
Assay type: in vivo, Hordeum vulgare cv. Bonanza
Conditions: POSTEMERGENCE 0125 GM/HA
Hi! Could you send only the number? It should be in %, unit omitted.

These solved cases illustrate the format of a correct answer.
1. C=C(c1ccc(F)cc1)C(O)(Cn1cncn1)c1ccccc1F (stereo not shown) [Example 644]: 20
2. C=C(c1ccccc1)C(O)(Cn1cncn1)c1ccc(Cl)cc1 (stereo not shown) [Example 51]: 0
3. C=C(c1ccccc1)C(O)(Cn1cncn1)c1ccc(F)cc1F (stereo not shown) [Example 52]: 20

Turning to the following compound.
Q. Fill in the blank: the reported plant response of C=C(c1ccc(F)cc1)C(O)(Cn1cncn1)c1ccc(F)cc1F (stereo not shown) [Example 4] is ____.
A. 30

###

A collection of compounds and their measured plant response
Tested on: MUSTARD SPP.
Assay: Test E
Assay type: in vivo, Brassica spp.
Details: POSTEMERGENCE 0500 GM/HA
Hi! Could you send only the number? It should be in %, unit omitted.

1. C=C(c1ccccc1)C(O)(Cn1cncn1)c1ccc(F)cc1F (stereo not shown): 50
2. C=C(c1ccccc1)C(O)(Cn1cncn1)c1ccc(Cl)cc1 (stereo not shown): 30
3. C=C(c1ccc(F)cc1)C(O)(Cn1cncn1)c1ccc(F)cc1F (stereo not shown): 80

Turning to the following compound.
Q. Fill in the blank: the reported plant response of C=C(c1ccc(F)cc1)C(O)(Cn1cncn1)c1ccccc1F (stereo not shown) is ____.
A. 50

###

Tested on: Candida albicans ATCC 11651
Assay: In vivo systemic Candida infection in mice, primary assay
Parameters: species or system Candida albicans; CF-1 female mice
Details: Candida albicans, ATCC11651, 336 h, 150 mg/kg per day, day 14; read-out: % Survival
Observed Property: responders at 150 mg/kg (%)
Hi! Could you send only the number? It should be in %, unit omitted.

These solved cases illustrate the format of a correct answer.
1. C=C(CN(C)C)C(O)(Cn1cncn1)c1ccc(Cl)cc1Cl (stereo not shown): 40
2. C=C(c1ccc(F)cc1)C(O)(CC)Cn1cncn1 (stereo not shown): 10
3. C=C(c1ccc(C)cc1)C(O)(Cn1cncn1)c1ccc(F)cc1 (stereo not shown): 30

Q. Fill in the blank: the reported responders at 150 mg/kg of C=C(c1ccc(F)cc1)C(O)(CCCC)Cn1cncn1 (stereo not shown) is ____.
A. 10

Q. Fill in the blank: the reported responders at 150 mg/kg of C=C(c1ccc(Cl)cc1)C(O)(Cn1cncn1)c1ccc(Cl)cc1Cl (stereo not shown) is ____.
A. 100

###

System: Plasmorpara viticola
Assay: Example I grape downy mildew
Assay type: in vivo
Details: read-out: disease control rating, Ex. I
Observed Property: pest or weed control at 100 ppm (%)
Hi! Could you send only the number? It should be in %, unit omitted.

Q. // fetch Plasmorpara viticola pest or weed control at 100 ppm for C=C(c1ccccc1Cl)C(O)(Cn1cncn1)c1ccc(F)cc1 (centres unmarked)
A. 98

Q. // fetch Plasmorpara viticola pest or weed control at 100 ppm for C=C(c1ccc(Cl)cc1)C(O)(Cn1cncn1)c1ccc(Cl)c(Cl)c1 (centres unmarked)
A. 69

###

Test system: REDROOT PIGWEED
Assay: Test E
Type: in vivo, Amaranthus retroflexus
Conditions: POSTEMERGENCE 0125 GM/HA
Observed Property: plant response (%)
Hi! Could you send only the number? It should be in %, unit omitted.

These solved cases illustrate the format of a correct answer.
1. C=C(c1ccccc1)C(O)(Cn1cncn1)c1ccc(Cl)cc1 (stereo not shown) [Example 51]: 50
2. C=C(c1ccccc1)C(O)(Cn1cncn1)c1ccc(F)cc1F (stereo not shown) [Example 52]: 50

Q. // fetch REDROOT PIGWEED plant response for C=C(c1ccc(F)cc1)C(O)(Cn1cncn1)c1ccccc1F (stereo not shown) [Example 644]
A. 50

Q. // fetch REDROOT PIGWEED plant response for C=C(c1ccc(F)cc1)C(O)(Cn1cncn1)c1ccc(F)cc1F (stereo not shown) [Example 4]
A. 40

###

A collection of molecules and their measured plant response
Test system: PARK WHEAT
Assay: Test E
Type: in vivo, Triticum aestivum cv. Park
Conditions: POSTEMERGENCE 0500 GM/HA
Hi! Could you send only the number? It should be in %, unit omitted.

These solved cases illustrate the format of a correct answer.
1) C=C(c1ccccc1)C(O)(Cn1cncn1)c1ccc(Cl)cc1 (stereo not shown): 0
2) C=C(c1ccccc1)C(O)(Cn1cncn1)c1ccc(F)cc1F (stereo not shown): 50
3) C=C(c1ccc(F)cc1)C(O)(Cn1cncn1)c1ccccc1F (stereo not shown): 40

Q. Fill in the blank: the reported plant response of C=C(c1ccc(F)cc1)C(O)(Cn1cncn1)c1ccc(F)cc1F (stereo not shown) is ____.
A. 50

###

A collection of compounds and their measured responders at 150 mg/kg
Tested on: Candida albicans ATCC 11651
Assay: In vivo systemic Candida infection in mice, primary assay
Set-up: species or system Candida albicans; CF-1 female mice
Conditions: Candida albicans, ATCC11651, 336 h, 150 mg/kg per day, day 14; read-out: % Survival
Hi! Could you send only the number? It should be in %, unit omitted.

1) C=C(c1ccccc1)C(O)(Cn1cncn1)c1ccccc1Cl (stereo not shown): 60
2) C=C(c1ccc(Cl)cc1Cl)C(O)(Cn1cncn1)c1ccc(Cl)cc1Cl (stereo not shown): 50
3) C=C(c1ccc(C(C)(C)C)cc1)C(O)(Cn1cncn1)c1ccc(Cl)cc1 (stereo not shown): 0

Q. Fill in the blank: the reported responders at 150 mg/kg of C=C(c1ccccc1Cl)C(O)(Cn1cncn1)c1ccccc1F (stereo not shown) is ____.
A. 100

Q. Fill in the blank: the reported responders at 150 mg/kg of C=C(c1ccccc1Cl)C(O)(Cn1cncn1)c1ccc(Cl)cc1Cl (stereo not shown) is ____.
A. 100

Q. Fill in the blank: the reported responders at 150 mg/kg of C=C(c1ccc(F)cc1)C(O)(Cn1cncn1)c1ccc(Cl)cc1Cl (stereo not shown) is ____.
A. 100

Q. Fill in the blank: the reported responders at 150 mg/kg of C=C(c1ccc(Cl)cc1)C(O)(Cn1cncn1)c1ccc(F)cc1 (stereo not shown) is ____.
A. 100

Q. Fill in the blank: the reported responders at 150 mg/kg of C=C(c1ccccc1F)C(O)(Cn1cncn1)c1ccc(F)cc1 (stereo not shown) is ____.
A. 10

Q. Fill in the blank: the reported responders at 150 mg/kg of C=C(c1ccccc1Cl)C(O)(Cn1cncn1)c1ccc(Cl)c(Cl)c1 (stereo not shown) is ____.
A. 0

Q. Fill in the blank: the reported responders at 150 mg/kg of C=C(c1ccccc1Cl)C(O)(Cn1cncn1)c1ccc(F)cc1 (stereo not shown) is ____.
A. 90

Q. Fill in the blank: the reported responders at 150 mg/kg of C=C(c1ccc(SC)cc1)C(O)(Cn1cncn1)c1ccc(F)cc1F (stereo not shown) is ____.
A. 80

Q. Fill in the blank: the reported responders at 150 mg/kg of C=C(c1ccc(Cl)cc1)C(O)(Cn1cncn1)c1ccccc1Cl (stereo not shown) is ____.
A. 100

Q. Fill in the blank: the reported responders at 150 mg/kg of C=C(c1cccc(Cl)c1)C(O)(Cn1cncn1)c1ccc(Cl)cc1Cl (stereo not shown) is ____.
A. 100

Q. Fill in the blank: the reported responders at 150 mg/kg of C=C(c1ccccc1Cl)C(O)(Cn1cncn1)c1ccc(Cl)cc1 (stereo not shown) is ____.
A. 100

###

Tested on: Venturia inaequalis
Assay: Example A apple scab
Type: in vivo
Settings: 100 PPM, read-out: disease control rating, Ex. A
Observed Property: pest or weed control at 100 ppm (%)
Hi! Could you send only the number? It should be in %, unit omitted.

1. C=C(c1ccccc1Cl)C(O)(Cn1cncn1)c1ccccc1F (centres unmarked) [Example 620]: 100
2. C=C(c1ccccc1Cl)C(O)(Cn1cncn1)c1ccc(F)cc1 (centres unmarked) [Example 32]: 100
3. C=C(c1ccccc1Cl)C(O)(Cn1cncn1)c1ccccc1Cl (centres unmarked) [Example 622]: 100
4. C=C(c1ccc(Cl)cc1)C(O)(Cn1cncn1)c1ccc(Cl)cc1 (centres unmarked) [Example 27]: 62
5. C=C(c1ccc(F)cc1)C(O)(Cn1ncnc1SCC#N)c1ccccc1F (centres unmarked) [Example 1451]: 86
6. C=C(c1ccc(Cl)cc1Cl)C(O)(Cn1cncn1)c1ccc(Cl)cc1Cl (centres unmarked) [Example 100]: 100
7. C=C(c1ccc(Cl)cc1)C(O)(Cn1cncn1)c1ccc(F)cc1 (centres unmarked) [Example 25]: 100
8. C=C(c1ccccc1)C(O)(Cn1cncn1)c1ccc(F)c(Cl)c1 (centres unmarked) [Example 605]: 70
9. C=C(c1cccc(Cl)c1)C(O)(Cn1cncn1)c1ccc(Cl)cc1 (centres unmarked) [Example 41]: 100
10. C=C(CO)C(O)(Cn1cncn1)c1ccc(-c2ccccc2)cc1 (centres unmarked) [Example 452]: 36

Q. Fill in the blank: the reported pest or weed control at 100 ppm of C=C(c1ccc(F)cc1)C(Cn1cncn1)(OC)c1ccc(F)cc1 (centres unmarked) [Example 359] is ____.
A. 72

Q. Fill in the blank: the reported pest or weed control at 100 ppm of C=C(c1ccc(F)cc1)C(Cn1cncn1)(OC(=O)NC)c1ccc(F)cc1 (centres unmarked) [Example 363] is ____.
A. 0

Q. Fill in the blank: the reported pest or weed control at 100 ppm of C=C(c1ccccc1)C(O)(Cn1cncn1)c1ccccc1F (centres unmarked) [Example 594] is ____.
A. 86

Q. Fill in the blank: the reported pest or weed control at 100 ppm of C=C(c1ccc(F)cc1)C(O)(Cn1ncnc1S)c1ccc(F)cc1F (centres unmarked) [Example 1304] is ____.
A. 100

Q. Fill in the blank: the reported pest or weed control at 100 ppm of C=CCOC(Cn1cncn1)(C(=C)c1ccc(F)cc1)c1ccc(F)cc1 (centres unmarked) [Example 360] is ____.
A. 88

Q. Fill in the blank: the reported pest or weed control at 100 ppm of C=C(CN(C)C)C(O)(Cn1cncn1)c1ccc(Cl)cc1Cl (centres unmarked) [Example 453] is ____.
A. 55

Q. Fill in the blank: the reported pest or weed control at 100 ppm of N#CCS(=O)(=O)c1ncnn1CC(O)(c1ccccc1F)C1(c2ccc(F)cc2)CO1 (centres unmarked) [Example 1469] is ____.
A. 68

Q. Fill in the blank: the reported pest or weed control at 100 ppm of C=C(c1ccccc1C(F)(F)F)C(O)(Cn1cncn1)c1ccc(F)cc1 (centres unmarked) [Example 724] is ____.
A. 100
